# Tested on: SK-MEL-1
# testDescription: Cytotoxicity against human SK-MEL-1 cells assessed as reduction in cell viability incubated for 72 hrs by MTT assay
# Type: functional, cell-based
# assayContext: SK-MEL-1, 72 h
pIC50: −log10 of the molar value.
pIC50 listing for selected molecules.

- substanceSmiles: "C=C(Br)C(=O)Nc1cccc(-c2cn3nc(-c4cccs4)sc3n2)c1"
  testedOn: "SK-MEL-1"
  pIC50: 6.16
- substanceSmiles: "C=C(Br)C(=O)Nc1cccc(-c2cn3nc(-c4ccc(F)cc4)sc3n2)c1"
  testedOn: "SK-MEL-1"
  pIC50: 5.96
- substanceSmiles: "C=C(Br)C(=O)Nc1cccc(-c2cn3c(-c4ccc(OC)cc4)csc3n2)c1"
  testedOn: "SK-MEL-1"
  pIC50: 6.00
- substanceSmiles: "C=C(Br)C(=O)Nc1cccc(-c2cn3nc(-c4ccc(OC)c(OC)c4)sc3n2)c1"
  testedOn: "SK-MEL-1"
  pIC50: 6.11

* * *

# Tested on: HL-60
# testDescription: Induction of apoptosis in human HL60 cells assessed as cleavage of pro-caspase-3 at 3 uM incubated for 8 hrs by immunoblot method
# Format: functional, cell-based
Calls of active or inactive are those of the source. The rule behind the calls is not given here.

- substanceSmiles: "C=C(Br)C(=O)Nc1cccc(-c2cn3nc(-c4ccc(OC)c(OC)c4)sc3n2)c1"
  Activity: "Active"
- substanceSmiles: "C=C(Br)C(=O)Nc1cccc(-c2cn3nc(-c4cccs4)sc3n2)c1"
  Activity: "Active"
- substanceSmiles: "C=C(Br)C(=O)Nc1cccc(-c2cn3nc(-c4ccc(F)cc4)sc3n2)c1"
  Activity: "Active"
- substanceSmiles: "C=C(Br)C(=O)Nc1cccc(-c2cn3c(-c4ccc(OC)cc4)csc3n2)c1"
  Activity: "Active"

* * *

# System: HL-60
# testDescription: Induction of apoptosis in human HL60 cells assessed as hypodiploid cells level at 1 uM incubated for 24 hrs by propidium iodide staining based flow cytometry relative to untreated control
# Assay type: functional
fold change (FC) listing for selected compounds.
assayEndpoint: fold change (FC)

- substanceSmiles: "C=C(Br)C(=O)Nc1cccc(-c2cn3nc(-c4ccc(OC)c(OC)c4)sc3n2)c1"
  testedOn: "HL-60"
  assayEndpoint: "fold change (FC)"
  reportedMeasurement: 6
- substanceSmiles: "C=C(Br)C(=O)Nc1cccc(-c2cn3nc(-c4cccs4)sc3n2)c1"
  testedOn: "HL-60"
  assayEndpoint: "fold change (FC)"
  reportedMeasurement: 5.6
- substanceSmiles: "C=C(Br)C(=O)Nc1cccc(-c2cn3c(-c4ccc(OC)cc4)csc3n2)c1"
  testedOn: "HL-60"
  assayEndpoint: "fold change (FC)"
  reportedMeasurement: 4
- substanceSmiles: "C=C(Br)C(=O)Nc1cccc(-c2cn3nc(-c4ccc(F)cc4)sc3n2)c1"
  testedOn: "HL-60"
  assayEndpoint: "fold change (FC)"
  reportedMeasurement: 4.6

* * *

fold change (FC) listing for selected molecules.
# Test system: HL-60
# testDescription: Induction of apoptosis in human HL60 cells assessed as cleavage of pro-caspase-3/7 activity at 3 uM incubated for 8 hrs DEVD-pNA chromogenic substrate proteolytic cleavage assay
# Format: functional

- substanceSmiles: "C=C(Br)C(=O)Nc1cccc(-c2cn3nc(-c4ccc(F)cc4)sc3n2)c1"
  fold change (FC): 2.3
- substanceSmiles: "C=C(Br)C(=O)Nc1cccc(-c2cn3c(-c4ccc(OC)cc4)csc3n2)c1"
  fold change (FC): 3.8
- substanceSmiles: "C=C(Br)C(=O)Nc1cccc(-c2cn3nc(-c4cccs4)sc3n2)c1"
  fold change (FC): 3
- substanceSmiles: "C=C(Br)C(=O)Nc1cccc(-c2cn3nc(-c4ccc(OC)c(OC)c4)sc3n2)c1"
  fold change (FC): 3.2
